The following molecules are listed with their measured IC50 values.
Biological target: MMP-13 (Homo sapiens, UniProt P45452)
Test: Assay for determining MMP-13 inhibition (fluorogenic substrate)
Type: biochemical
Details: Table 2; methyl substitution at R^2 or R^3; read-out: IC50 (nM), Comparison of MMP-13 Activity Versus Location of Substituent (R^2 or R^3)

# example entries with known answers
> print(dat)
                                   molecule  measured.quantity  recorded.value
1  C[C@H](NC(=O)c1cc(C(=O)NCc2ccc(-c3nnn[nH]3)cc2)ncn1)c1ccccc1 [Example 1040b]               IC50         < 10 nM
2  COc1cccc(CNC(=O)c2cc(C(=O)N[C@@H](C)c3ccc(-c4nnn[nH]4)cc3)ncn2)c1               IC50         < 10 nM
3  COc1cccc(CNC(=O)c2cc(C(=O)N[C@H](C)c3ccc(-c4nnn[nH]4)cc3)ncn2)c1 (stereo in doubt)               IC50        > 100 nM

Moving on to the next molecule.
Given C[C@@H](NC(=O)c1cc(C(=O)NCc2ccc(-c3nnn[nH]3)cc2)ncn1)c1ccccc1 [Example 1040a] , report its IC50 on MMP-13 (Homo sapiens, UniProt P45452).
> 100 nM

* * *

Assay: Microsomal stability, rat microsomes
Assay type: in vitro ADME
Settings: rat microsomes 0.3 mg/mL, 1 μM compound, 60 min at 37° C.
measured-quantity: Rat (%), microsomal stability, percentage of compound remaining

I: O=C(NCc1ccc(F)cc1)c1cc(C(=O)NCc2ccc(-c3nnn[nH]3)cc2)ncn1 [Example 1040e]
II: COc1cccc(CNC(=O)c2cc(C(=O)NCc3ccc(-c4nnn[nH]4)cc3)ncn2)c1 [Example 1040d]
III: C[C@H](NC(=O)c1cc(C(=O)NCc2ccc(-c3nnn[nH]3)cc2)ncn1)c1ccccc1 [Example 1040b]
Arrange by Rat (%), microsomal stability, percentage of compound remaining, high to low. Hello, could you send the labels back in the order asked? Thank you.
III, I, II

* * *

The following compounds are listed with their measured IC50 values.
Target: MMP-13 (Homo sapiens)
Assay: Assay for determining MMP-13 inhibition (fluorogenic substrate)
Format: biochemical
Settings: Table 1; read-out: IC50 (nM), Summary of MMP-13 Activity for Compounds of Formula I

> print(dat)
                                   compound  recorded.value
1  Cc1cc(CNC(=O)c2cc(C(=O)N[C@@H](C)c3ccc(C(=O)N4CCOCC4)cc3)ncn2)ccc1F [Example 1028e]        < 200 nM
2  Cc1cc(CNC(=O)c2cc(C(=O)N[C@@H](C(N)=O)c3ccc(-c4nnn[nH]4)cc3)ncn2)ccc1F [Example 1002]         < 10 nM
3  CCc1cc(CNC(=O)c2cc(C(=O)N[C@@H](C)c3ccc(-c4nnn[nH]4)cc3)ncn2)cs1 [Example 1007o]        < 200 nM
4  Cc1cc(CNC(=O)c2cc(C(=O)N[C@@H](C)c3ccc(-c4nnn[nH]4)cc3)ncn2)ccc1F [Example 1007]         < 10 nM

Give the measured IC50 for Cc1cc(CNC(=O)c2cc(C(=O)N[C@@H](C)c3ccc(-c4noc(CCC(=O)O)n4)cc3)ncn2)ccc1F [Example 1021]
< 200 nM

Give the measured IC50 for C[C@H](NC(=O)c1cc(C(=O)NCc2cccs2)ncn1)c1ccc(-c2nnn[nH]2)cc1 [Example 1007d]
< 1000 nM

Give the measured IC50 for Cc1cc(CNC(=O)c2cc(C(=O)N[C@@H](C)c3ccc(C(=O)O)cc3)ncn2)ccc1F [Example 1000]
< 200 nM

Give the measured IC50 for O=C(NCc1ccc(F)cc1)c1cc(C(=O)N[C@@H](CO)c2ccc(-c3nnn[nH]3)cc2)ncn1 [Example 1004]
< 200 nM
